Source: patent US6294674A

- measurement_target: MMP07 (Homo sapiens, UniProt P09237)
- Construct: made in house; host or cells: Escherichia coli
- Sequence (P09237 95-267): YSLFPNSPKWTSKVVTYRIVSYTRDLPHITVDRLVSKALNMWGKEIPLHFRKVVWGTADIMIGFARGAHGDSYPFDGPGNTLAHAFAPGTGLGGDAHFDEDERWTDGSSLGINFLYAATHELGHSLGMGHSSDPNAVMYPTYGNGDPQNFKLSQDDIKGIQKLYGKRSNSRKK
- procedure_details: Thiopeptolide assay, MMP07
- Assay type: biochemical
- condition_notes: Tables 2, 3, 5, 7; read-out: IC50 MMP-7
# key: entry, value: pIC50
Please express pIC50 as -log10 of the molar concentration.

O=C(CCC(NS(=O)(=O)c1ccc2oc3ccccc3c2c1)C(=O)O)Nc1ccc(Cl)cc1 (centres unmarked) ... 4.49
O=C(CCC(NS(=O)(=O)c1ccc2oc3ccccc3c2c1)C(=O)O)NC1CC1 (centres unmarked) ... 4.83
O=C(O)C(CCCCNS(=O)(=O)c1ccccc1)NS(=O)(=O)c1ccc2oc3ccccc3c2c1 (centres unmarked) ... 4.04
COc1ccc(CCC(=O)NCCCCC(NS(=O)(=O)c2ccc3oc4ccccc4c3c2)C(=O)O)cc1 (centres unmarked) ... 4.27

Kindly review the next compound as well.
So what does the record say about pIC50 for CC(C)CC(C)NC(=O)CCC(NS(=O)(=O)c1ccc2oc3ccccc3c2c1)C(=O)O (centres unmarked) ? 5.15

---

# key: entry, value: IC50
- measurement_target: gelatinase A catalytic domain (MMP02)
- procedure_details: Thiopeptolide assay, gelatinase A catalytic domain (GCD, MMP02)
- Type: biochemical
- condition_notes: Tables 2, 3, 5, 7; read-out: IC50 MMP-2CD
Provide the reading as a plain figure in nM.

Some solved cases for reference:
O=C(CCCc1c[nH]c2ccccc12)NCCCCC(NS(=O)(=O)c1ccc2oc3ccccc3c2c1)C(=O)O (stereo not drawn) [Example A31] ... 3300
O=C(Cc1ccccc1C(F)(F)F)NCCCCC(NS(=O)(=O)c1ccc2oc3ccccc3c2c1)C(=O)O (stereo not drawn) [Example A4] ... 2700
O=C(Cc1ccc2c(c1)OCO2)NCCCCC(NS(=O)(=O)c1ccc2oc3ccccc3c2c1)C(=O)O (stereo not drawn) [Example A19] ... 1000
COc1ccc(OCC(=O)NCCCCC(NS(=O)(=O)c2ccc3oc4ccccc4c3c2)C(=O)O)cc1 (stereo not drawn) [Example A13] ... 1200
O=C(COc1cccc2ccccc12)NCCCCC(NS(=O)(=O)c1ccc2oc3ccccc3c2c1)C(=O)O (stereo not drawn) [Example A14] ... 7800

So what does the record say about IC50 for CC(C)(C)c1ccc(OCC(=O)NCCCCC(NS(=O)(=O)c2ccc3oc4ccccc4c3c2)C(=O)O)cc1 (stereo not drawn) [Example A10] ? 9400

Now give it for O=C(NCCCCC(NS(=O)(=O)c1ccc2oc3ccccc3c2c1)C(=O)O)Nc1ccc(Cl)c(Cl)c1 (stereo not drawn) [Example B2] too. 22200

Now give it for O=C(COc1ccccc1)NCCCCC(NS(=O)(=O)c1ccc2oc3ccccc3c2c1)C(=O)O (stereo not drawn) [Example A8] too. 1600

Now give it for CC(=O)Nc1ccc(S(=O)(=O)NCCCCC(NS(=O)(=O)c2ccc3oc4ccccc4c3c2)C(=O)O)cc1 (stereo not drawn) [Example D5] too. 1200

Now give it for O=C(Cc1cccs1)NCCCCC(NS(=O)(=O)c1ccc2oc3ccccc3c2c1)C(=O)O (stereo not drawn) [Example A5] too. 900

Now give it for O=C(NCCCCC(NS(=O)(=O)c1ccc2oc3ccccc3c2c1)C(=O)O)NCc1ccccc1 (stereo not drawn) [Example B9] too. 800

Now give it for Cn1cccc1CCNC(=O)CCC(NS(=O)(=O)c1ccc2oc3ccccc3c2c1)C(=O)O (stereo not drawn) [Example F14] too. 400

Now give it for O=C(CCC(NS(=O)(=O)c1ccc2oc3ccccc3c2c1)C(=O)O)NCCc1ccncc1 (stereo not drawn) [Example F1] too. 1400

Now give it for O=C(O)C(CCCCNS(=O)(=O)c1cccc2ccccc12)NS(=O)(=O)c1ccc2oc3ccccc3c2c1 (stereo not drawn) [Example D9] too. 4300

Now give it for O=C(CCc1ccncc1)NCCCCC(NS(=O)(=O)c1ccc2oc3ccccc3c2c1)C(=O)O (stereo not drawn) [Example A22] too. 3000

---

- measurement_target: MMP07 (Homo sapiens)
- Construct: made in house; host or cells: Escherichia coli
- procedure_details: Thiopeptolide assay, MMP07
- Type: biochemical
- condition_notes: Tables 2, 3, 5, 7; read-out: IC50 MMP-7
# key: entry, value: IC50

O=C(CCC(NS(=O)(=O)c1ccc2oc3ccccc3c2c1)C(=O)O)NCc1cccs1 (stereo not shown) ... 12.3 µM
O=C(CCCc1c[nH]c2ccccc12)NCCCCC(NS(=O)(=O)c1ccc2oc3ccccc3c2c1)C(=O)O (stereo not shown) ... > 100 µM
COc1ccc(OCC(=O)NCCCCC(NS(=O)(=O)c2ccc3oc4ccccc4c3c2)C(=O)O)cc1 (stereo not shown) ... > 100 µM
Cc1cc(OCCCC(=O)NCCCCC(NS(=O)(=O)c2ccc3oc4ccccc4c3c2)C(=O)O)ccc1Cl (stereo not shown) ... > 100 µM

So what does the record say about IC50 for O=C(O)C(CCCCNC(=S)NC(c1ccccc1)c1ccccc1)NS(=O)(=O)c1ccc2oc3ccccc3c2c1 (stereo not shown) ? > 100 µM

Now give it for O=C(CCCc1ccc([N+](=O)[O-])cc1)NCCCCC(NS(=O)(=O)c1ccc2oc3ccccc3c2c1)C(=O)O (stereo not shown) too. > 100 µM

Now give it for O=C(O)C(CCCCNS(=O)(=O)c1ccc2ccccc2c1)NS(=O)(=O)c1ccc2oc3ccccc3c2c1 (stereo not shown) too. > 100 µM

---

- measurement_target: gelatinase A catalytic domain (MMP02)
- procedure_details: Thiopeptolide assay, gelatinase A catalytic domain (GCD, MMP02)
- Type: biochemical
- condition_notes: Tables 2, 3, 5, 7; read-out: IC50 MMP-2CD
pIC50: −log10 of the molar value.
# cutoff 6 applies to pIC50; >= gives Met, < gives Not met

O=C(CCC(NS(=O)(=O)c1ccc2oc3ccccc3c2c1)C(=O)O)NCCc1cccs1 (centres unmarked) ... Not met
Cc1cc(OCCCC(=O)NCCCCC(NS(=O)(=O)c2ccc3oc4ccccc4c3c2)C(=O)O)ccc1Cl (centres unmarked) ... Not met
O=C(CCC(NS(=O)(=O)c1ccc2oc3ccccc3c2c1)C(=O)O)NCCCCc1ccccc1 (centres unmarked) ... Not met
O=C(O)C(CCCCNS(=O)(=O)c1ccc2ccccc2c1)NS(=O)(=O)c1ccc2oc3ccccc3c2c1 (centres unmarked) ... Not met
O=C(CC1=CCCC1)NCCCCC(NS(=O)(=O)c1ccc2oc3ccccc3c2c1)C(=O)O (centres unmarked) ... Met

Does the reported pIC50 for O=C(O)C(CCCCNC(=S)NC12CC3CC(CC(C3)C1)C2)NS(=O)(=O)c1ccc2oc3ccccc3c2c1 (centres unmarked) fall at or above the 6 mark? Not met

---

- measurement_target: MMP07 (Homo sapiens, UniProt P09237)
- Construct: made in house; host or cells: Escherichia coli
- Sequence (P09237 95-267): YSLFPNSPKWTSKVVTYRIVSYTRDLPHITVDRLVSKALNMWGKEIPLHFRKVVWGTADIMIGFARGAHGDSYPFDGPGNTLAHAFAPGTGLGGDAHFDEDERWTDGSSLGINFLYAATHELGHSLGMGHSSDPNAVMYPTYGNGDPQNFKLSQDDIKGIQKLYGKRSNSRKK
- procedure_details: Thiopeptolide assay, MMP07
- Assay type: biochemical
- condition_notes: Tables 2, 3, 5, 7; read-out: IC50 MMP-7
pIC50: −log10 of the molar value.
# key: entry, value: pIC50

COc1ccccc1CCC(=O)NCCCCC(NS(=O)(=O)c1ccc2oc3ccccc3c2c1)C(=O)O (stereo not drawn) ... < 4.00
CCC(Oc1ccccc1)C(=O)NCCCCC(NS(=O)(=O)c1ccc2oc3ccccc3c2c1)C(=O)O (stereo not drawn) ... < 4.00
O=C(O)C(CCCCNS(=O)(=O)c1ccc(F)cc1)NS(=O)(=O)c1ccc2oc3ccccc3c2c1 (stereo not drawn) [Example D1] ... < 4.00
CC(C)(Oc1ccc(Cl)cc1)C(=O)NCCCCC(NS(=O)(=O)c1ccc2oc3ccccc3c2c1)C(=O)O (stereo not drawn) ... < 4.00
CCCc1ccc(NC(=O)CCC(NS(=O)(=O)c2ccc3oc4ccccc4c3c2)C(=O)O)cc1 (stereo not drawn) ... 4.37

Kindly review the next compound as well.
So what does the record say about pIC50 for O=C(Cc1cccs1)NCCCCC(NS(=O)(=O)c1ccc2oc3ccccc3c2c1)C(=O)O (stereo not drawn) ? 4.45

---

# key: entry, value: pIC50
- measurement_target: MMP07 (Homo sapiens)
- Construct: made in house; host or cells: Escherichia coli
- procedure_details: Thiopeptolide assay, MMP07
- Assay type: biochemical
- condition_notes: Tables 2, 3, 5, 7; read-out: IC50 MMP-7
pIC50: −log10 of the molar value.

O=C(CCCc1cccs1)NCCCCC(NS(=O)(=O)c1ccc2oc3ccccc3c2c1)C(=O)O (stereo not drawn) [Example A35] ... < 4.00
O=C(O)C(CCCCNS(=O)(=O)C=Cc1ccccc1)NS(=O)(=O)c1ccc2oc3ccccc3c2c1 (stereo not drawn) [Example D10] ... < 4.00

Kindly review the next compound as well.
So what does the record say about pIC50 for O=C(O)C(CCCCNS(=O)(=O)c1cccc2ccccc12)NS(=O)(=O)c1ccc2oc3ccccc3c2c1 (stereo not drawn) [Example D9] ? < 4.00
